# Assay remarks: Selectivity index, ratio of compound concentration showing <20 to <25% hemolysis in mouse RBC to MIC for Candida glabrata ATCC 2001
# Assay type: toxicity
# Assay conditions: red blood cells (erythrocytes), read-out: Selectivity Index
Measured quantity: selectivity ratio

Enquiry: Specify reported selectivity ratio for the compound shown: C(=N\Nc1ccccc1)/c1ccc(-c2ccc(/C=N/Nc3ccccc3)cc2)cc1
Return: 1 to 32

Enquiry: Specify reported selectivity ratio for the compound shown: C(=N\Nc1ccccc1)/c1ccc(-c2cccc(/C=N/Nc3ccccc3)c2)cc1
Return: 1 to 32

###

Provide the reported IC50 of each item.
# Subject of test: Voltage-gated inwardly rectifying potassium channel KCNH2 (Homo sapiens)
# Sequence (Q12809 whole entry): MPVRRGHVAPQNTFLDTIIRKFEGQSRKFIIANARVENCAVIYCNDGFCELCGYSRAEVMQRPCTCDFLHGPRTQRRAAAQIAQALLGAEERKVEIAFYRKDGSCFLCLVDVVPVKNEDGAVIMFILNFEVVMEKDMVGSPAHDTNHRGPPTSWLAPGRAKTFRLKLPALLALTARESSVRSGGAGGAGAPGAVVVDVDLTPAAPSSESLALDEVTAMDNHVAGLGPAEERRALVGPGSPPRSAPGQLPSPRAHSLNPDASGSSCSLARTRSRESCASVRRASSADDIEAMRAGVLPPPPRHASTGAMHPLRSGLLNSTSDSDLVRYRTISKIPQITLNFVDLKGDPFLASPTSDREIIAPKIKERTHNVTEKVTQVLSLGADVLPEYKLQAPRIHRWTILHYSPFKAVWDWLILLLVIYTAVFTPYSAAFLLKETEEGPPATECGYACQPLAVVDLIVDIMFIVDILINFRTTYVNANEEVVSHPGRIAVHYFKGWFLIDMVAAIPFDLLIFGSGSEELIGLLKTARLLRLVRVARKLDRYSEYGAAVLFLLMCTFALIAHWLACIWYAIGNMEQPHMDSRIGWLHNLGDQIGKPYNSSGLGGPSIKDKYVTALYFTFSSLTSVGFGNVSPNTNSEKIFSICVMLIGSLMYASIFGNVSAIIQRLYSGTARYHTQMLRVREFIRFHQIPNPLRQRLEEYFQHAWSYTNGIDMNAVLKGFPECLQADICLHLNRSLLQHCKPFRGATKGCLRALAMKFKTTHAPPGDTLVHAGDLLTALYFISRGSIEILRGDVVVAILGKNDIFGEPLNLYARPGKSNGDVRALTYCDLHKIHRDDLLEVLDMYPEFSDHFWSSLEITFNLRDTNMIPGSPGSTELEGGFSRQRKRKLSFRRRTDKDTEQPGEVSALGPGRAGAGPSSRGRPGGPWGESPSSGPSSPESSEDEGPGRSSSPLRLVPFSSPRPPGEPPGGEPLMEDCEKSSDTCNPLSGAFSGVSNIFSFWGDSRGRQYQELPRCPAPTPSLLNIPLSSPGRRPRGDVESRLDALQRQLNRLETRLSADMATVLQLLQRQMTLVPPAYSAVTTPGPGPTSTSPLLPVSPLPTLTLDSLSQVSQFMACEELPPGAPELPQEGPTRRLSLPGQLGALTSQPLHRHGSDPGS
# Assay remarks: Inhibition of [3H]-dofetilide binding to human ERG expressed in HEK293 cell membranes measured after 1 hr by liquid scintillation counting method

Enquiry: Provide measured IC50 on Voltage-gated inwardly rectifying potassium channel KCNH2 (Homo sapiens) for C/C(=N\Nc1ccc(F)cc1)c1ccc(-c2ccc(/C(C)=N/Nc3ccc(F)cc3)cc2)cc1 please.
Return: > 30 µM

Enquiry: Provide measured IC50 on Voltage-gated inwardly rectifying potassium channel KCNH2 (Homo sapiens) for Fc1ccc(N/N=C/c2ccc(-c3cccc(/C=N/Nc4ccc(F)cc4)c3)cc2)cc1 please.
Return: > 30 µM

Enquiry: Provide measured IC50 on Voltage-gated inwardly rectifying potassium channel KCNH2 (Homo sapiens) for COc1ccc(N/N=C/c2ccc(-c3ccc(/C=N/Nc4ccc(OC)cc4)cc3)cc2)cc1 please.
Return: > 30 µM

Enquiry: Provide measured IC50 on Voltage-gated inwardly rectifying potassium channel KCNH2 (Homo sapiens) for COc1ccc(N/N=C/c2ccc(-c3cccc(/C=N/Nc4ccc(OC)cc4)c3)cc2)cc1 please.
Return: > 30 µM

###

# System: BEAS-2B
# Assay remarks: Cytotoxicity against human BEAS2B cells after 24 hrs by resazurin based assay
# Type: cell-based
Provide the reported CC50 of each item.
The reply should contain only the number, in µg/mL.

Enquiry: Specify reported CC50 for the compound shown: Fc1ccc(N/N=C/c2ccc(-c3ccc(/C=N/Nc4ccc(F)cc4)cc3)cc2)cc1
Return: 8.5

Enquiry: Specify reported CC50 for the compound shown: N=C(N)N/N=C/c1ccc(-c2cccc(/C=N/NC(=N)N)c2)cc1
Return: 2.9

Enquiry: Specify reported CC50 for the compound shown: Fc1ccc(N/N=C/c2ccc(-c3cccc(/C=N/Nc4ccc(F)cc4F)c3)cc2)c(F)c1
Return: 16.9

Enquiry: Specify reported CC50 for the compound shown: Fc1cccc(N/N=C/c2ccc(-c3cccc(/C=N/Nc4cccc(F)c4)c3)cc2)c1
Return: 11.8

Enquiry: Specify reported CC50 for the compound shown: COc1ccc(N/N=C/c2ccc(-c3ccc(/C=N/Nc4ccc(OC)cc4)cc3)cc2)cc1
Return: 16.4

###

# Assay remarks: Selectivity index, ratio of CC50 for human A549 cells to MIC for Aspergillus nidulans ATCC 38163
# Assay type: toxicity
# Assay conditions: read-out: Selectivity Index
Measured quantity: selectivity ratio
API doc: respond with a numeric literal and nothing else, no unit.

Enquiry: Specify reported selectivity ratio for the compound shown: Fc1ccc(N/N=C/c2ccc(-c3cccc(/C=N/Nc4ccc(F)cc4F)c3)cc2)c(F)c1
Return: 2.1

Enquiry: Specify reported selectivity ratio for the compound shown: C(=N\Nc1ccccc1)/c1ccc(-c2ccc(/C=N/Nc3ccccc3)cc2)cc1
Return: 9.1

Enquiry: Specify reported selectivity ratio for the compound shown: Fc1cccc(N/N=C/c2ccc(-c3cccc(/C=N/Nc4cccc(F)c4)c3)cc2)c1
Return: 1.5

Enquiry: Specify reported selectivity ratio for the compound shown: COc1ccc(N/N=C/c2ccc(-c3ccc(/C=N/Nc4ccc(OC)cc4)cc3)cc2)cc1
Return: 4

Enquiry: Specify reported selectivity ratio for the compound shown: COc1ccc(N/N=C/c2ccc(-c3cccc(/C=N/Nc4ccc(OC)cc4)c3)cc2)cc1
Return: 0.6

Enquiry: Specify reported selectivity ratio for the compound shown: Fc1ccccc1N/N=C/c1ccc(-c2cccc(/C=N/Nc3ccccc3F)c2)cc1
Return: 2.1

Enquiry: Specify reported selectivity ratio for the compound shown: Fc1ccc(N/N=C/c2ccc(-c3cccc(/C=N/Nc4ccc(F)cc4)c3)cc2)cc1
Return: 8

Enquiry: Specify reported selectivity ratio for the compound shown: Fc1ccc(N/N=C/c2ccc(-c3ccc(/C=N/Nc4ccc(F)cc4)cc3)cc2)cc1
Return: 2.3

Enquiry: Specify reported selectivity ratio for the compound shown: C/C(=N\Nc1ccc(F)cc1)c1ccc(-c2ccc(/C(C)=N/Nc3ccc(F)cc3)cc2)cc1
Return: 2.1

Enquiry: Specify reported selectivity ratio for the compound shown: Fc1cccc(N/N=C/c2ccc(-c3ccc(/C=N/Nc4cccc(F)c4)cc3)cc2)c1
Return: 1

Enquiry: Specify reported selectivity ratio for the compound shown: C(=N\Nc1ccccc1)/c1ccc(-c2cccc(/C=N/Nc3ccccc3)c2)cc1
Return: 16
